Test: in vivo
Conditions: female, Sprague-Dawley, rat, iv, 15 mg/kg, MRT (mean residence time), pregnant rats, maternal blood, nirmatrelvir 15 mg/kg i.v. plus ritonavir 7 mg/kg i.v.
resultType: MRT

MRT reported for this molecule CC(C)(C)[C@H](NC(=O)C(F)(F)F)C(=O)N1C[C@H]2[C@@H]([C@H]1C(=O)N[C@H](C#N)C[C@@H]1CCNC1=O)C2(C)C : 3.22 h

====

Experiment: in vivo
Details: female, Sprague-Dawley, rat, iv, 15 mg/kg, t1/2 (elimination half-life), nonpregnant female rats, blood, nirmatrelvir 15 mg/kg i.v. plus ritonavir 7 mg/kg i.v.
resultType: half-life (min)
Answer format: numeric, min implied, no suffix.

Consider CC(C)(C)[C@H](NC(=O)C(F)(F)F)C(=O)N1C[C@H]2[C@@H]([C@H]1C(=O)N[C@H](C#N)C[C@@H]1CCNC1=O)C2(C)C . Its measured half-life is 25

====

Assay: in vivo
Settings: male, Sprague-Dawley, rat, iv, 15 mg/kg, CL (clearance), male rats, blood, nirmatrelvir 15 mg/kg i.v. alone
resultType: clearance (mL/min/kg)
Reply numerically in mL/min/kg, unit not repeated.

Recorded clearance (compound CC(C)(C)[C@H](NC(=O)C(F)(F)F)C(=O)N1C[C@H]2[C@@H]([C@H]1C(=O)N[C@H](C#N)C[C@@H]1CCNC1=O)C2(C)C ): 21

====

Experiment: in vivo
Conditions: female, Sprague-Dawley, rat, iv, 15 mg/kg, AUClast, pregnant rats, maternal blood, nirmatrelvir 15 mg/kg i.v. plus ritonavir 7 mg/kg i.v.
resultType: AUC(0-t) (µg·h/mL)
A number alone suffices; assume µg·h/mL.

// CC(C)(C)[C@H](NC(=O)C(F)(F)F)C(=O)N1C[C@H]2[C@@H]([C@H]1C(=O)N[C@H](C#N)C[C@@H]1CCNC1=O)C2(C)C : AUC(0-t) value = 120

====

Assay: in vivo
Settings: female, Sprague-Dawley, rat, iv, 15 mg/kg, Tmax, pregnant rats, amniotic fluid, nirmatrelvir 15 mg/kg i.v. plus ritonavir 7 mg/kg i.v.
resultType: Tmax (h)
Give your result in h as a bare value.

// sample CC(C)(C)[C@H](NC(=O)C(F)(F)F)C(=O)N1C[C@H]2[C@@H]([C@H]1C(=O)N[C@H](C#N)C[C@@H]1CCNC1=O)C2(C)C , its Tmax was 3.6

====

Assay: in vivo
Conditions: female, Sprague-Dawley, rat, iv, 15 mg/kg, t1/2 (elimination half-life), nonpregnant female rats, brain, nirmatrelvir 15 mg/kg i.v. plus ritonavir 7 mg/kg i.v.
resultType: half-life (h)
# output: bare number, implied unit h

For this compound ( CC(C)(C)[C@H](NC(=O)C(F)(F)F)C(=O)N1C[C@H]2[C@@H]([C@H]1C(=O)N[C@H](C#N)C[C@@H]1CCNC1=O)C2(C)C ), measured half-life is 1.07

====

Assay: in vivo
Conditions: male, Sprague-Dawley, rat, iv, 15 mg/kg, Cmax, male rats, brain, nirmatrelvir 15 mg/kg i.v. alone
resultType: Cmax (µg/mL)
Write the value in µg/mL as a bare number.

The recorded Cmax for entry CC(C)(C)[C@H](NC(=O)C(F)(F)F)C(=O)N1C[C@H]2[C@@H]([C@H]1C(=O)N[C@H](C#N)C[C@@H]1CCNC1=O)C2(C)C equals 2.52

====

Assay: in vivo
Conditions: female, Sprague-Dawley, rat, iv, 15 mg/kg, AUClast, pregnant rats, fetus, nirmatrelvir 15 mg/kg i.v. plus ritonavir 7 mg/kg i.v.
resultType: AUC(0-t)
Answer with the number, then the unit.

Reported AUC(0-t) ( CC(C)(C)[C@H](NC(=O)C(F)(F)F)C(=O)N1C[C@H]2[C@@H]([C@H]1C(=O)N[C@H](C#N)C[C@@H]1CCNC1=O)C2(C)C ) = 5720 ng·h/mL

====

Experiment: in vivo
Details: male, Sprague-Dawley, rat, iv, 15 mg/kg, Cmax, male rats, brain, nirmatrelvir 15 mg/kg i.v. plus ritonavir 7 mg/kg i.v.
resultType: Cmax (ng/mL)
Form entry: value (ng/mL) — number only.

Lab note: measured Cmax of CC(C)(C)[C@H](NC(=O)C(F)(F)F)C(=O)N1C[C@H]2[C@@H]([C@H]1C(=O)N[C@H](C#N)C[C@@H]1CCNC1=O)C2(C)C was 2020

====

Experiment: in vivo
Conditions: female, Sprague-Dawley, rat, iv, 15 mg/kg, AUClast, pregnant rats, amniotic fluid, nirmatrelvir 15 mg/kg i.v. plus ritonavir 7 mg/kg i.v.
resultType: AUC(0-t) (ng·h/mL)
Express it in ng·h/mL; write the number only.

get_value(item= CC(C)(C)[C@H](NC(=O)C(F)(F)F)C(=O)N1C[C@H]2[C@@H]([C@H]1C(=O)N[C@H](C#N)C[C@@H]1CCNC1=O)C2(C)C [Nirmatrelvir] , readout=AUC(0-t)) returns 17200

====

Assay: in vivo
Settings: female, Sprague-Dawley, rat, iv, 15 mg/kg, Tmax, nonpregnant female rats, brain, nirmatrelvir 15 mg/kg i.v. alone
resultType: Tmax (min)
# output: bare number, implied unit min

Entry under test: CC(C)(C)[C@H](NC(=O)C(F)(F)F)C(=O)N1C[C@H]2[C@@H]([C@H]1C(=O)N[C@H](C#N)C[C@@H]1CCNC1=O)C2(C)C [Nirmatrelvir] . Its Tmax was 20

====

Test: in vivo
Conditions: male, Sprague-Dawley, rat, iv, 15 mg/kg, Cmax, male rats, blood, nirmatrelvir 15 mg/kg i.v. plus ritonavir 7 mg/kg i.v.
resultType: Cmax (µg/mL)
# output: bare number, implied unit µg/mL

Cmax reported for this compound CC(C)(C)[C@H](NC(=O)C(F)(F)F)C(=O)N1C[C@H]2[C@@H]([C@H]1C(=O)N[C@H](C#N)C[C@@H]1CCNC1=O)C2(C)C [Nirmatrelvir] : 94.5

====

Assay: in vivo
Details: female, Sprague-Dawley, rat, iv, 15 mg/kg, Cmax, pregnant rats, amniotic fluid, nirmatrelvir 15 mg/kg i.v. plus ritonavir 7 mg/kg i.v.
resultType: Cmax
# output: numeric value plus its unit

Lab note: measured Cmax of CC(C)(C)[C@H](NC(=O)C(F)(F)F)C(=O)N1C[C@H]2[C@@H]([C@H]1C(=O)N[C@H](C#N)C[C@@H]1CCNC1=O)C2(C)C was 6590 ng/mL

====

Test: in vivo
Details: female, Sprague-Dawley, rat, iv, 15 mg/kg, Cmax, pregnant rats, amniotic fluid, nirmatrelvir 15 mg/kg i.v. alone
resultType: Cmax (ng/mL)
Just the number please, in ng/mL, no unit attached.

Cmax in this record for CC(C)(C)[C@H](NC(=O)C(F)(F)F)C(=O)N1C[C@H]2[C@@H]([C@H]1C(=O)N[C@H](C#N)C[C@@H]1CCNC1=O)C2(C)C : 1840

====

Experiment: in vivo
Details: female, Sprague-Dawley, rat, iv, 15 mg/kg, CL (clearance), nonpregnant female rats, blood, nirmatrelvir 15 mg/kg i.v. plus ritonavir 7 mg/kg i.v.
resultType: clearance (mL/min/kg)
State the answer as a number, implicitly in mL/min/kg.

Please fill in: clearance reported for CC(C)(C)[C@H](NC(=O)C(F)(F)F)C(=O)N1C[C@H]2[C@@H]([C@H]1C(=O)N[C@H](C#N)C[C@@H]1CCNC1=O)C2(C)C [Nirmatrelvir] = 3.73

====

Assay: in vivo
Conditions: female, Sprague-Dawley, rat, iv, AUCtissue/AUCblood (maternal blood-to-tissue transfer ratio), pregnant rats, amniotic fluid, nirmatrelvir 15 mg/kg i.v. plus ritonavir 7 mg/kg i.v.
resultType: Kp
Reply briefly: the number, and no unit.

# Kp of CC(C)(C)[C@H](NC(=O)C(F)(F)F)C(=O)N1C[C@H]2[C@@H]([C@H]1C(=O)N[C@H](C#N)C[C@@H]1CCNC1=O)C2(C)C = 0.2

====

Assay: in vivo
Settings: female, Sprague-Dawley, rat, iv, 15 mg/kg, MRT (mean residence time), pregnant rats, placenta, nirmatrelvir 15 mg/kg i.v. alone
resultType: MRT (h)
# output: bare number, implied unit h

Sure, the documented MRT for CC(C)(C)[C@H](NC(=O)C(F)(F)F)C(=O)N1C[C@H]2[C@@H]([C@H]1C(=O)N[C@H](C#N)C[C@@H]1CCNC1=O)C2(C)C [Nirmatrelvir] is 2.53

====

Test: in vivo
Conditions: female, Sprague-Dawley, rat, iv, 15 mg/kg, Cmax, nonpregnant female rats, blood, nirmatrelvir 15 mg/kg i.v. alone
resultType: Cmax (ng/mL)
Unit ng/mL implied. Number only.

Briefly, Cmax measured for CC(C)(C)[C@H](NC(=O)C(F)(F)F)C(=O)N1C[C@H]2[C@@H]([C@H]1C(=O)N[C@H](C#N)C[C@@H]1CCNC1=O)C2(C)C : 35600

====

Assay: in vivo
Conditions: male, Sprague-Dawley, rat, iv, 15 mg/kg, t1/2 (elimination half-life), male rats, blood, nirmatrelvir 15 mg/kg i.v. plus ritonavir 7 mg/kg i.v.
resultType: half-life (min)
The answer is to be given in min; state only the numeric part.

Value of half-life reported for the compound CC(C)(C)[C@H](NC(=O)C(F)(F)F)C(=O)N1C[C@H]2[C@@H]([C@H]1C(=O)N[C@H](C#N)C[C@@H]1CCNC1=O)C2(C)C [Nirmatrelvir] is 50
